Numbers sourced from patent US20210198277A1.

biological target: EHMT2 (Homo sapiens); construct: host or cells: MDA-MB-231; test: MDA-MB-231 H3K9me2 in-cell Western assay (EHMT2 ICW); format: cell-based; details: Table VII; read-out: EHMT2 ICW IC50
Sequence (Q96KQ7 whole entry): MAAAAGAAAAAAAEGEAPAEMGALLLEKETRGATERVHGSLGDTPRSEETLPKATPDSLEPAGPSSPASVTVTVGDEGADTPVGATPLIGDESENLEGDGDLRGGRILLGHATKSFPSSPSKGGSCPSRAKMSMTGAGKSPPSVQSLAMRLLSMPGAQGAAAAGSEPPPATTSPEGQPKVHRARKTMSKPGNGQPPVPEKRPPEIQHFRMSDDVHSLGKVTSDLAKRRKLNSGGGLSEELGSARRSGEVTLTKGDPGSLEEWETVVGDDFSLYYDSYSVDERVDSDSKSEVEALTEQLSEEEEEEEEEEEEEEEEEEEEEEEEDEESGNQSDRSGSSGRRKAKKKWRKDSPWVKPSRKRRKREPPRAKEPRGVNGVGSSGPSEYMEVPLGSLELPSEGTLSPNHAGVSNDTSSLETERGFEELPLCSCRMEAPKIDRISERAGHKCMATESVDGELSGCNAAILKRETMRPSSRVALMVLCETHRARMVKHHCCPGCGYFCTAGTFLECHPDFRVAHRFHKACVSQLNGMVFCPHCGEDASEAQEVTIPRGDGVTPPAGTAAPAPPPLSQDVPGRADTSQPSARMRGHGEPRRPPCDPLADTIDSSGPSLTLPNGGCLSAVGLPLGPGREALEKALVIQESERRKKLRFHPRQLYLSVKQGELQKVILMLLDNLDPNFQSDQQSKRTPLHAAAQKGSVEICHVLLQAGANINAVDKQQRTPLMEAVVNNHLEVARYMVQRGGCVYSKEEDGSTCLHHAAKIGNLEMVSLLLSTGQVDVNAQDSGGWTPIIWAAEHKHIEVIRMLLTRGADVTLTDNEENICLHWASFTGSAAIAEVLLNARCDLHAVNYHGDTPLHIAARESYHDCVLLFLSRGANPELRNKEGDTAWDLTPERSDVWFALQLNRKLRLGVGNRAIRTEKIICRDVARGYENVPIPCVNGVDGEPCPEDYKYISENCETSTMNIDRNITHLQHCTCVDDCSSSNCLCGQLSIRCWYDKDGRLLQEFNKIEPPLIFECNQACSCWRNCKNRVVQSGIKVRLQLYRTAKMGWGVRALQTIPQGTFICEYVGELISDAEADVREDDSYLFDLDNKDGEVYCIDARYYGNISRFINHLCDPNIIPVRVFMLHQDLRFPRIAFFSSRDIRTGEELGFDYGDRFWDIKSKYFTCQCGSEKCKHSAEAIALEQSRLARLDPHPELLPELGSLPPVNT
pIC50: −log10 of the molar value.
Property: pIC50

Input: Tell me pIC50 of CNc1cc(C)nc(Nc2ccc(OC)c(OC[C@@H](O)CN3CCCC3)c2)n1 [Compound 1044] when tested on EHMT2 (Homo sapiens).
Output: 6.00 to 7.00

Input: Tell me pIC50 of CNc1ccnc(Nc2cnc(OC)c(ONCCN3CCCC3)c2)n1 [Compound 1064] when tested on EHMT2 (Homo sapiens).
Output: 6.00 to 7.00

Input: Tell me pIC50 of CNc1cc2cc(OCCCN3CCCC3)c(OC)cc2cc1Cl [Compound 1043] when tested on EHMT2 (Homo sapiens).
Output: 5.00 to 6.00

Input: Tell me pIC50 of CNc1cc(C)nc(Nc2ccc(OC)c(CNCCN(C)C)c2)n1 [Compound 1101] when tested on EHMT2 (Homo sapiens).
Output: 6.00 to 7.00

Input: Tell me pIC50 of CNc1ccnc(Nc2cnc(OC)c(OC[C@@H]3CCN(C)C3)c2)n1 [Compound 1065] when tested on EHMT2 (Homo sapiens).
Output: 6.00 to 7.00

Input: Tell me pIC50 of CNc1ccnc(Nc2ccc(OC)c(OC[C@@H](O)CN3CCC3)c2)n1 [Compound 1046] when tested on EHMT2 (Homo sapiens).
Output: 5.00 to 6.00
